# MEASURED ON: T1, Claudin 18.2 (CLDN18.2), expressed on CHOS-CLDN 18.2 / HEK293-CLDN 18.2 / HCC827-CLDN 18.2 cells (human, UniProt P56856-2 1-261)
# T1 construct: whole, on cells; The species is not repeated for the CHOS-CLDN 18.2 cells; also called claudin-18A2
# PROCEDURE DETAILS: FACS, CHOS-CLDN18.2 cells
This listing pairs binders with measured max.
Just the number, please, no unit attached.

# BINDER, max
records = [
    ("QP199200 (antibody, human IgG1, V domains shown, Chimeric; also called 43C11; mouse-derived chimeric antibody QP199200) VH: DVQLVESGGGLVQPGGSRKLSCAASGFTFSSFGMHWVRQAPEKGLEWVAYISSGSNSIYYVDTVKGRFTISRDNPKNTLFLQMTSLKSEDTAMYYCARNAYYGNSFDYWGQGTTLTVSS VL: DIVMTQSPSSLTVTAGEKVTMSCKSSQSLLNSGNQKNYLTWYQQKPGQPPKLLIYWASTRESGVPDRFTGSGSGTVFTLTISSVQAEDLAVYFCQNNYYYPLTFGAGTKLELK", 165000),
    ("QP024025 (antibody, human IgG1, V domains shown, also called IMAB362; 175D10(IMAB362)) VH: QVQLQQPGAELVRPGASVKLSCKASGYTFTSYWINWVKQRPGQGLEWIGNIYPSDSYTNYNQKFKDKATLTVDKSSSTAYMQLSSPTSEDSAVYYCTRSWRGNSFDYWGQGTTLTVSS VL: DIVMTQSPSSLTVTAGEKVTMSCKSSQSLLNSGNQKNYLTWYQQKPGQPPKLLIYWASTRESGVPDRFTGSGSGTDFTLTISSVQAEDLAVYYCQNDYSYPFTFGSGTKLEIK", 88600),
    ("QP14491448 (antibody, human IgG1, kappa, V domains shown, Humanized from QP199200) VH: EVQLVESGGGLVQPGGSLRLSCAASGFTFSSFGMHWVRQAPGKGLEWVSYISSGSNSIYYVDTVKGRFTISRDNAKNSLYLQMNSLRDEDTAVYYCARNAYYGNSFDYWGQGTLVTVSS VL: DIVMTQSPDSLAVSLGERATISCKSSQSLLNSGNQKNYLTWYQQKPGQPPKLLIYWASTRESGVPDRFTGSGSGTVFTLTISSLQAEDVAVYFCQNNYYYPLTFGGGTKVEIKR", 154000),
]

Moving on to another binder below.
Suppose we examine the binder QP14501446 (antibody, human IgG1, kappa, V domains shown, Humanized from QP199200) VH: EVQLVESGGGLVQPGGSLRLSCAASGFTFSSFGMHWVRQAPGKGLEWVAYISSGSNSIYYVDTVKGRFTISRDNAKNSLYLQMNSLRDEDTAVYYCARNAYYGNSFDYWGQGTLVTVSS VL: DIVMTQSPDSLAVSLGERATINCKSSQSLLNSGNQKNYLTWYQQKPGQPPKLLIYWASTRESGVPDRFSGSGSGTDFTLTISSLQAEDVAVYYCQNNYYYPLTFGGGTKVEIKR ; what max value has been reported?
143000
